# measured_on: Casein kinase I isoform gamma-3 (Homo sapiens) (UniProt Q9Y6M4)
# Sequence (Q9Y6M4 whole entry, looked up, canonical isoform): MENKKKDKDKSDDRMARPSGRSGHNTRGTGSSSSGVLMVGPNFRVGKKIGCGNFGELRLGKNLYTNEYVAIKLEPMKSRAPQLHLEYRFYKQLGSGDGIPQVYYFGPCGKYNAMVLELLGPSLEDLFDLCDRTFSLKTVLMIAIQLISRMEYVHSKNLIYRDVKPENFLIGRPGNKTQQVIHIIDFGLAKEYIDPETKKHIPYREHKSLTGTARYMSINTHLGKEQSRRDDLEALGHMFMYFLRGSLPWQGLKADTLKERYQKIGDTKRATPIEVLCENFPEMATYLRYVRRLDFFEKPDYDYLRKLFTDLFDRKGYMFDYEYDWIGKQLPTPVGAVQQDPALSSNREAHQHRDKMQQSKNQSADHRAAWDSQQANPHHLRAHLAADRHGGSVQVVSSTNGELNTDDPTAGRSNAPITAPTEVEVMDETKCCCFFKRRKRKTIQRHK
# study_conditions: at 1 µM
Binary call on inhibition: met from 4% upward, not met beneath that.

- CN(C)CCOc1ccc(-c2nc(-c3ccncc3)c(-c3ccc4c(c3)CC/C4=N\O)[nH]2)cc1: not met
- COc1cccc(-c2c[nH]c3c(N/N=C/c4ccncc4)ncnc23)c1: met
- Cc1ccc(O)cc1Nc1ccnc2cc(-c3ccccn3)ccc12: met
- CCn1c(-c2nonc2N)nc2ccccc21: met
- CCN(CC)S(=O)(=O)c1ccc(OC)c(Nc2ncc(-c3ccccc3)o2)c1: not met
- c1ccc(-c2nc3n(c2-c2ccc4c(c2)OCO4)CCC3)nc1: met
- CC1=C(C(=O)Nc2cc(Cl)c3[nH]ncc3c2)C(c2ccc(C(F)(F)F)cc2)CC(=O)N1 (stereo not given): not met
- O=S(=O)(CCNCc1ccc(-c2ccc3ncnc(Nc4ccc(OCc5cccc(F)c5)c(Cl)c4)c3c2)o1)c1ccccc1: met
- COc1ccc(-c2nn3ncccc3c2-c2ccnc(Nc3ccc4c(c3)OCCO4)n2)cc1: not met
- CN1CCC(n2cnc(-c3ccc(F)cc3)c2-c2ccnc(Nc3ccccc3)n2)CC1: met

----------
# inhibition per entry
# measured_on: CDK3/Cyclin E (Homo sapiens) (UniProt P24864+Q00526)
# Sequence (P24864 whole entry, looked up): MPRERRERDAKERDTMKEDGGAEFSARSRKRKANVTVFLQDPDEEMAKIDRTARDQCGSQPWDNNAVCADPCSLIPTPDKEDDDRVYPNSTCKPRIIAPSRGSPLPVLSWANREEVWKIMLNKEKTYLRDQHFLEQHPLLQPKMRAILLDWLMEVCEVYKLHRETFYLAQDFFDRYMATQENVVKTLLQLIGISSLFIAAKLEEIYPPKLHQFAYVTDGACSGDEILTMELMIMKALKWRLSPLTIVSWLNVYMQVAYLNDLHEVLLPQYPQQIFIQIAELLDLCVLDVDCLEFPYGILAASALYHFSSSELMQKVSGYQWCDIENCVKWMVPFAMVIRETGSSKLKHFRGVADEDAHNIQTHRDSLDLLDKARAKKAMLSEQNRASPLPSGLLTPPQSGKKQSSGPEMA
# Sequence (Q00526 whole entry, looked up): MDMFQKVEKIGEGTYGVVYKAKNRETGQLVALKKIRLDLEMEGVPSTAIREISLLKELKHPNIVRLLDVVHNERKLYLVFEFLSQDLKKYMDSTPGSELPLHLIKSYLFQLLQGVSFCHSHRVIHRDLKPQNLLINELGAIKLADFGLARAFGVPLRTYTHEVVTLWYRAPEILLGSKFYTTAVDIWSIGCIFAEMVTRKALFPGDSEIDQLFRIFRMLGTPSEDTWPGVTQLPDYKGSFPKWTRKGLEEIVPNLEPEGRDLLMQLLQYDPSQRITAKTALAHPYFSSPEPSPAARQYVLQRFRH
# study_conditions: at 1 µM
assay_readout: inhibition (%)

* COC(=O)c1sc(-n2cnc3cc(OC)c(OC)cc32)cc1OCc1ccccc1C(F)(F)F | -1.85
* CCc1nn2ncccc2c1-c1ccnc(NC2CC2)n1 | 2.56
* CNC(=O)c1cccc(C#Cc2cncnc2Nc2ccc(OCc3cccc(F)c3)c(Cl)c2)c1 | 3.72
* N#Cc1c(NC(=O)c2ccc(F)cc2)sc2c1CCCC2 | -1.72
* CC(C)COC(=O)c1ccc2c(c1)/C(=C/Nc1ccc(S(N)(=O)=O)cc1)C(=O)N2 | 90.8
* Cc1ccc(O)cc1Nc1ccnc2cc(-c3ccccn3)ccc12 | -0.7
* CN1CCC(n2cnc(-c3ccc(F)cc3)c2-c2ccnc(N)n2)CC1 | -0.17
* CS(=O)(=O)CCNCc1ccc(-c2ccc3ncnc(Nc4ccc(OCc5ccccc5)c(C(F)(F)F)c4)c3c2)o1 | -3.61
* CCn1c(-c2nonc2N)nc2c(C#CC(C)(C)O)nc(OC[C@H](N)c3ccccc3)cc21 | -0.33
* CNC(=O)c1cc(-c2ccc(F)cc2)cc(-c2ccc(S(=O)(=O)N3CCCC3)cc2)c1N | -2.51

----------
Listed below: inhibition values for each entry.
# measured_on: Tyrosine-protein kinase HCK (Homo sapiens)
# study_conditions: at 1 µM
assay_readout: inhibition (%)

- CCCN(CCS(C)(=O)=O)Cc1ccc(-c2ccc3ncnc(Nc4ccc(OCc5cccc(F)c5)c(Cl)c4)c3c2)o1: 8.65
- COc1ccc2[nH]c3c4[nH]c5ccc(OC)cc5c4c4c(c3c2c1)C(=O)NC4=O: 75.6
- c1ccc(COc2ccc(Nc3ncnc4ccc(-c5ccco5)cc34)cc2)cc1: 1.93
- CCOc1ccc2c(-c3ccnc(Nc4cccc(C(F)(F)F)c4)n3)cnn2n1: 6.8
- c1ccc(-c2nc3n(c2-c2ccc4c(c2)OCO4)CCC3)nc1: 0.81
- CCn1c(-c2nonc2N)nc2ccccc21: 8.93
- COC(=O)Nc1nc2ccc(Oc3ccc(NC(=O)Nc4cccc(Cl)c4)cc3)cc2[nH]1: 2.91
- Cc1ccc(O)cc1Nc1ccnc2cc(-c3ccccn3)ccc12: 87.9
- COc1cc(/C=N/Nc2ncnc3[nH]ncc23)ccc1O: 54.2
- COc1cc2c(cc1Nc1nc(Nc3ccsc3C(N)=O)c3cc[nH]c3n1)N(C(=O)CN(C)C)CCC2(C)C: 12.9
- COc1ccc(-c2cc3c(N)ncnc3o2)cc1: 7.05
- Cc1ccc2c(-c3ccnc(Nc4ccccc4)n3)c(-c3ccc(F)cc3)nn2n1: 43.9
- COC(=O)c1sc(-n2cnc3cc(OC)c(OC)cc32)cc1OCc1ccccc1C(F)(F)F: 28.1
- Nc1nc(-c2cccc(Cl)c2)c(-c2ccc3ncccc3n2)s1: 9.71
- FC(F)(F)c1cccc(-c2nn3ncccc3c2-c2ccnc(Nc3ccc4c(c3)OCCO4)n2)c1: 31.2
- COc1ccc(-c2oc3ncnc(N)c3c2-c2ccc(NC(=O)Nc3cc(C(F)(F)F)ccc3F)cc2)cc1: 86.1
- CCn1c(-c2nonc2N)nc2c(C#CC(C)(C)O)nc(OC[C@H](N)c3ccccc3)cc21: 9.34
- N#Cc1c(NC(=O)c2ccc(F)cc2)sc2c1CCCC2: 3.88
- CS(=O)(=O)CCNCc1coc(-c2ccc3ncnc(Nc4ccc(OCc5ccccc5)cc4)c3c2)c1: 9.64
- CNC(=O)c1cncc(/C=C/c2ccccc2Cl)c1: 11.3
- CN1CCC(n2cnc(-c3ccc(F)cc3)c2-c2ccnc(Nc3ccccc3)n2)CC1: 11.1

----------
# measured_on: Cyclin-dependent kinase 1 (Homo sapiens) (UniProt P06493)
# Sequence (P06493 whole entry, looked up): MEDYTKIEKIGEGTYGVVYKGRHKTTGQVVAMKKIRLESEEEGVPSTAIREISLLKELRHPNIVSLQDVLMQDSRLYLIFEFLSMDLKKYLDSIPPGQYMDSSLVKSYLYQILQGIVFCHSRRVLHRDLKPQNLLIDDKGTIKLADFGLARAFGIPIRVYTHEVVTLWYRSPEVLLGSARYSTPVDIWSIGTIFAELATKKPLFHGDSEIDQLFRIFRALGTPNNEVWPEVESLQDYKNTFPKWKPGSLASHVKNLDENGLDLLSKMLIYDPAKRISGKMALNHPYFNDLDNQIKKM
# study_conditions: at 1 µM
Entries and their inhibition
assay_readout: inhibition

- Cc1cccc(Nc2ncc(-c3ccccc3)o2)c1: 5.05%
- CNC(=O)c1cccc(C#Cc2cncnc2Nc2ccc(OCc3cccc(F)c3)c(Cl)c2)c1: 2.85%
- CC(C)COC(=O)c1ccc2c(c1)/C(=C/Nc1ccc(S(N)(=O)=O)cc1)C(=O)N2: 75.5%
- COc1cc(Nc2nccc(Nc3ccc4c(C)n[nH]c4c3)n2)cc(OC)c1OC: 3.05%
- CCn1c(-c2nonc2N)nc2cnc(Oc3cccc(NC(=O)c4ccc(N(C)C)cc4)c3)cc21: 0.67%
- Nc1nc(-c2cccc(Cl)c2)c(-c2ccc3ncccc3n2)s1: 2.18%
- COc1cccc(-n2ncc3c(N/N=C/c4ccc(F)cc4)ncnc32)c1: 35.5%
- COc1ccc(CNC(=O)c2ccc(-c3cc(-c4nnc(C)o4)ccc3C)cc2)cc1: 1.37%
- c1cc(-c2cnn3nc(N4CCOCC4)ccc23)nc(NC2CC2)n1: 21.7%
- CC(C)(CO)CNC(=O)c1ccc2c(c1)/C(=N/Nc1ccc(S(N)(=O)=O)cc1)C(=O)N2: 74.8%
- NC(=O)c1sc(-n2cnc3ccc(C(F)(F)F)cc32)cc1OCc1ccccc1Br: 1.01%
- O=S(=O)(CCNCc1ccc(-c2ccc3ncnc(Nc4ccc(OCc5cccc(F)c5)c(Cl)c4)c3c2)o1)c1ccccc1: 1.65%
- CCN(CC)S(=O)(=O)c1ccc(OC)c(Nc2ncc(-c3ccccc3)o2)c1: 5.32%
- N#Cc1c(NC(=O)CN2CCOCC2)sc2c1CCCC2: 4.23%
- CCCN1CCC(c2ccc(Nc3nc(Nc4cc(F)ccc4C(N)=O)c4cc[nH]c4n3)c(OC)c2)CC1: 6.31%
- Fc1cccc(COc2ccc(Nc3ncnc4sc(-c5ccco5)cc34)cc2Cl)c1: 1.41%
- Cc1cccc2c1NC(=O)/C2=N\Nc1ccc(S(N)(=O)=O)cc1: 2.23%
- N#Cc1c(NC(=O)c2ccc(F)cc2)sc2c1CCCC2: -0.31%
- COc1cc(N2CCN(C(C)C)CC2)ccc1Nc1nc(Nc2ccc(F)cc2C(N)=O)c2cc[nH]c2n1: 1.85%
- CCNC(=O)O[C@H]1CN[C@H](C#Cc2cc3ncnc(Nc4ccc(OCc5cccc(F)c5)c(Cl)c4)c3s2)C1: 2.13%

----------
Measured inhibition, listed per entry.
# measured_on: Cyclin-dependent kinase 6 (Homo sapiens) (UniProt Q00534)
# Sequence (Q00534 whole entry): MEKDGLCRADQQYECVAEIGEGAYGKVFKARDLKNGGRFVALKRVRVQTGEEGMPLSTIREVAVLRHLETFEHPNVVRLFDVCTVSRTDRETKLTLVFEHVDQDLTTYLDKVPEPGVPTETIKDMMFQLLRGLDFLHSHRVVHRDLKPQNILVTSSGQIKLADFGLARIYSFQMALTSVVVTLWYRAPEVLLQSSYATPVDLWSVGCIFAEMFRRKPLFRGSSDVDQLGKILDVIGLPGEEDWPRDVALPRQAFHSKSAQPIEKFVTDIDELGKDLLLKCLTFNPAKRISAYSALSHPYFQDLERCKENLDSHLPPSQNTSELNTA
# study_conditions: at 0.1 µM
assay_readout: inhibition (%)

- CCN1CCC(CC(=O)Nc2n[nH]c3nnc(-c4cccc(F)c4F)cc23)CC1: -1.17
- CC(C)(CO)CNC(=O)c1ccc2c(c1)/C(=N/Nc1ccc(S(N)(=O)=O)cc1)C(=O)N2: 9.84
- CNC(=O)c1cncc(/C=C/c2ccccc2Cl)c1: 2.81
- CCn1c(-c2nonc2N)nc2c(C#CC(C)(C)O)ncc(OC3CCNCC3)c21: -2.96
- O=S(=O)(CCNCc1ccc(-c2ccc3ncnc(Nc4ccc(OCc5cccc(F)c5)c(Cl)c4)c3c2)o1)c1ccccc1: 0.74
- COC(=O)Nc1nc2ccc(Oc3ccc(NC(=O)Nc4cccc(Cl)c4)cc3)cc2[nH]1: -0.37
- CCCN(CCS(C)(=O)=O)Cc1ccc(-c2ccc3ncnc(Nc4ccc(OCc5cccc(F)c5)c(Cl)c4)c3c2)o1: 1.99
- Clc1ccc(-c2nn3ncccc3c2-c2ccnc(Nc3ccccc3)n2)cc1: 1.16
- COc1ccc(CNC(=O)c2ccc(-c3cc(-c4nnc(C)o4)ccc3C)cc2)cc1: -1.69
- Cc1cccc2c1NC(=O)/C2=N\Nc1ccc(S(N)(=O)=O)cc1: 5.03
- CCNC(=O)O[C@H]1CN[C@H](C#Cc2cc3ncnc(Nc4ccc(OCc5cccc(F)c5)c(Cl)c4)c3s2)C1: 9.65
- c1ccc(COc2ccc(Nc3ncnc4ccc(-c5ccco5)cc34)cc2)cc1: -2.29
- Nc1ncc(-c2cccc(S(N)(=O)=O)c2)c2scc(-c3ccc(F)c(Cl)c3)c12: -0.13
- COc1cc(/C=N/Nc2ncnc3[nH]ncc23)ccc1O: 10.4
- COc1cccc(-n2ncc3c(N/N=C/c4ccc(F)cc4)ncnc32)c1: 7.13
- CN1CCC(n2cnc(-c3ccc(F)cc3)c2-c2ccnc(N)n2)CC1: 1.87
- Fc1ccc(-c2cc(-c3c[nH]nc3-c3ccccn3)ccn2)cc1: -0.57
- COc1ccc2c(-c3ccnc(Nc4cccc(OC(F)(F)F)c4)n3)cnn2n1: 9.65
- Fc1ccc(-c2nn3ncccc3c2-c2ccnc(Nc3ccc4c(c3)OCCO4)n2)cc1: -2.15
- CN(C)CCOc1ccc(-c2nc(-c3ccncc3)c(-c3ccc4c(c3)CC/C4=N\O)[nH]2)cc1: 7.36
